Cited source: patent US12509421B2

- SYSTEM: CYP 1A2 (Homo sapiens, UniProt P05177)
- Sequence (P05177 whole entry): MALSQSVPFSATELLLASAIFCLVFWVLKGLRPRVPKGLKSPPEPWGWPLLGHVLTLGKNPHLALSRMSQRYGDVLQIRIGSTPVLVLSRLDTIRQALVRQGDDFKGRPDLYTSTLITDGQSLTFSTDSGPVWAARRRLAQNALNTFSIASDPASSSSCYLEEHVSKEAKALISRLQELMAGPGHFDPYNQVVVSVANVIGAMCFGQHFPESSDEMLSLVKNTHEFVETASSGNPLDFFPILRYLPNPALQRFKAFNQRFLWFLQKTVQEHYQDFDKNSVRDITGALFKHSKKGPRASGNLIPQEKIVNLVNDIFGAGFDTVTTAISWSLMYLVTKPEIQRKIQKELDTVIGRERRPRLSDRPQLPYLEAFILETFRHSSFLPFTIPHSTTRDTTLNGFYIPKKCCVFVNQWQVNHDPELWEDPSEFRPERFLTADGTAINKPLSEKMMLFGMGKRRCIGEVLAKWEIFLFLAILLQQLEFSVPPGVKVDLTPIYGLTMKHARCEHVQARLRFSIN
- MEASUREMENT DESCRIPTION: Inhibition of cytochrome P450 enzyme in human liver microsomes, CYP 1A2
- STUDY CONDITIONS: read-out: CYP 1A2 IC50; human liver microsomes; substrate Finacetin
pIC50: −log10 of the molar value.
OBSERVATION TYPE: pIC50

response.value for COc1cccc([C@]2(O)CCN(S(=O)(=O)Cc3ccccc3)C[C@H]2CN(C)C)c1.Cl [Example 20 of CN201911076305.X, hydrochloride, reference compound] (field: pIC50) = < 4.30

* * *

Catalogue of compounds with associated microsomal CLint at 2 μM
- MEASUREMENT DESCRIPTION: Metabolic stability in liver microsomes, dog
- STUDY CONDITIONS: dog, microsomes, pH 7.4
Where a name gives a salt, the structure may show the parent alone.
Provide the reading as a plain figure in µL/min/mg.

[2H]C([2H])([2H])N(C[C@@H]1CN(C(=O)Cc2cc(F)c(F)cc2F)CC[C@@]1(O)c1cccc(OC)c1)C([2H])([2H])[2H] [II-9hydrochloride] ... 659

// next entry
Sure, the documented microsomal CLint at 2 μM for [2H]C([2H])([2H])N(C[C@@H]1CN(S(=O)(=O)Cc2ccccc2)CC[C@@]1(O)c1cccc(OC)c1)C([2H])([2H])[2H] [II-3hydrochloride] is 663
